Ref: ChEMBL document CHEMBL4732091

Test system: ECa-109 cell line
Assay: Antiproliferative activity against human ECa-109 cell line cells assessed as inhibition of cell proliferation measured after 72 hrs by MTT assay
Format: functional, cell-based
Settings: ECa-109, 72 h
# strict inequality: IC50 < 6 µM yields met, everything else yields not met

compound | target.desc | group.label
COc1ccc2[nH]cc(CCNC(=O)c3ccc(NC(=S)N/N=C(\C)c4ccccn4)cc3)c2c1 | ECa-109 cell line | not met
Cc1ccc(/C=N/NC(=S)NC2CCC(C(=O)NCCc3c[nH]c4ccccc34)CC2)nc1 (configuration not stated) | ECa-109 cell line | not met

Here is the next item to consider.
Qu. Is IC50 of Cc1ccc(/C=N/NC(=S)Nc2ccc(C(=O)NCCc3c(C)[nH]c4ccccc34)cc2)nc1 strictly below 6 µM?
Ans. met
